I'd be grateful if you could share measured CC50 at 144 h for these entries.
Assay: Cytotoxicity against human Hep2 cells measured after 6 days by CCK8 assay
Assay type: cell-based, HEp-2

Some molecules with known CC50 at 144 h results, for comparison:
NCCNc1cc(N2CCN(C(=O)C3(c4ccccc4)CCC3)CC2)nc2ccccc12 | > 100 µM
NCCNc1cc(N2CCN(c3ccc(Cl)cc3)CC2)nc2ccccc12 | 6.6 µM
NCCNc1cc(N2CCN(C(=O)CCc3ccccc3)CC2)nc2ccccc12 | > 100 µM

Batch request: CC50 at 144 h for each of the following molecules.
1. CC(C)(C(=O)N1CCN(c2cc(NCCN)c3c(Cl)cccc3n2)CC1)c1ccccc1
2. COc1ccccc1CC(=O)N1CCN(c2cc(NCCN)c3ccccc3n2)CC1
3. CC(C)(C(=O)N1CCN(c2cc(NCCN)c3cc(Cl)ccc3n2)CC1)c1ccccc1
4. CC(C(=O)N1CCN(c2cc(NCCN)c3ccccc3n2)CC1)c1ccccc1 (stereo not given)
5. Cc1ccccc1CC(=O)N1CCN(c2cc(NCCN)c3ccccc3n2)CC1
6. COc1cccc(CC(=O)N2CCN(c3cc(NCCN)c4ccccc4n3)CC2)c1
7. CC(=O)NCCNc1cc(N2CCN(C(=O)C(C)(C)c3ccccc3)CC2)nc2ccccc12

A:
1. 20.8 µM
2. > 100 µM
3. 20.8 µM
4. > 100 µM
5. > 100 µM
6. > 100 µM
7. > 100 µM
